- Test system: K-562 leukemia
- testProtocol: NCI tumour cell line growth inhibition, 48 h; in the data active = GI50 below about 0.43 µM; inactive = the rest
Possible outcomes: True (active), False (inactive)

# compound, target, label
rows = [
    ("COc1cc(C2=NNC(c3ccc(N(C)C)cc3)C2)cc(OC)c1OC (configuration not stated)", "K-562 leukemia", "True"),
    ("CCN1CCC(Oc2c(C#N)ncc3[nH]c4ncccc4c23)CC1", "K-562 leukemia", "False"),
    ("NCCOc1ncccc1/C=C1\\c2ccccc2-c2ccc(F)cc21", "K-562 leukemia", "False"),
    ("CCN(Cc1ccncc1)c1ccc(CO)c(Cl)c1", "K-562 leukemia", "False"),
    ("COc1ccc2c(c1)C(=O)c1c-2n(CCCCl)c(=O)c2cc(OC)c(OC)cc12", "K-562 leukemia", "False"),
    ("COc1ccc(CCn2c3c(c4c(O)cccc42)C(=O)c2ccccc2-3)cc1OC", "K-562 leukemia", "False"),
    ("CCCCNCC(O)c1cc2c(Cl)cc(Cl)cc2c2cc(C(F)(F)F)ccc12 (configuration not stated)", "K-562 leukemia", "False"),
    ("Cc1ccc(-c2c(C#N)[n+](=O)c3cc(Cl)c(Cl)cc3n2[O-])cc1", "K-562 leukemia", "False"),
    ("CC(=O)c1nc2ccccc2n1CCN1CCN(C)CC1", "K-562 leukemia", "False"),
    ("CC(C)(C)c1ccc(C(=O)Nc2sc3c(c2C#N)CCC(=O)C3)cc1", "K-562 leukemia", "True"),
    ("CCCCCCCCc1ccc(OCCOCC[N+](C)(C)CC)cc1 (tested in a mixture with another compound)", "K-562 leukemia", "False"),
    ("FC(F)(F)c1ccc(-c2cnc(Cl)nc2NC2CCCCCC2)cc1", "K-562 leukemia", "False"),
]

* * *

- Tested on: PC-3 prostate
- testProtocol: NCI tumour cell line growth inhibition, 48 h

# compound, target, boundOperator, TGI [µM]
measured = [
    ("NCCOc1ncccc1/C=C1\\c2ccccc2-c2ccc(F)cc21", "PC-3 prostate", "=", 2.62),
    ("O=C(c1c2c(cc3c1CC1(Cc4cc5c(cc4C1)CCCC5)C3)CCCC2)C(Br)Br", "PC-3 prostate", "=", 26.9),
    ("N#Cc1c(-c2ccccc2)cc(-c2ccccc2)n(CC(=O)NO)c1=O", "PC-3 prostate", "=", 14),
    ("c1ccc(CNCCN2CCNCC2)nc1", "PC-3 prostate", ">", 100),
    ("CC(=O)C(C)CCOC1(C)OCCC1C (stereo unspecified)", "PC-3 prostate", ">", 100),
    ("O=C(CNc1cccc(Cl)c1)Nn1c(-c2ccccc2)nc2ccccc2c1=O", "PC-3 prostate", "=", 22.9),
]

* * *

TGI listing for selected compounds.
- System: M14 melanoma
- testProtocol: NCI tumour cell line growth inhibition, 48 h

# compound, unitOfMeasurement, boundOperator, TGI
rows = [
    ("NC1(C(=O)O)CCCC1C(=O)O (centres undefined)", "µM", ">", 100),
    ("CS(=O)(=O)Nc1cc(-c2ccc3ncnc(Nc4ccc5c(cnn5Cc5cccc(F)c5)c4)c3c2)cnc1Cl", "µM", "=", 2.5),
    ("CCCCc1ccc(-n2c(C)c(COC(=O)NC)c(COC(=O)NC)c2C)cc1", "µM", "=", 24.5),
    ("CCN=C1Nc2ccccc2-n2c(nn3nc4ccccc4c23)N1CC", "µM", ">", 100),
    ("Cc1ccccc1-n1c(=O)sc2c(=O)n(-c3ccccc3)c(=S)[nH]c21", "µM", ">", 100),
    ("COc1cc(Nc2cnc3cc(N)ccc3n2)cc(OC)c1OC", "µM", ">", 100),
    ("O=C(O/N=C1/CCCC/C1=C\\c1ccccc1)c1ccc(Cl)c(Cl)c1", "µM", ">", 100),
    ("CC(C)C(=O)OCC1CCCN2CCCCC12 (centres undefined)", "µM", ">", 100),
    ("COc1ccc2nc3ccccc3c(NCCN(C)CCCl)c2c1", "µM", "=", 2.29),
    ("CC(C)C1=C(O)C2=C(C(=O)C1=O)C1(C)CCCC(C)(C)C1CC2O (centres undefined)", "µM", "=", 15.3),
    ("Cc1cccc(NC(=O)/C=C/c2ccccc2)c1C", "µM", ">", 100),
    ("O=C(N=Nc1c(O)[nH]c2c(Cl)cc(Cl)cc12)c1ccccc1O", "µM", "=", 30.3),
    ("CC(C)(/C=N\\O)NO", "µM", ">", 10),
    ("O=C(O)CN1CCNCCNCC1", "µM", ">", 100),
    ("CC(C)OC(=O)C1=C2c3ncccc3C(=O)N2[C@@H](Cl)[C@@H](Cl)[C@@H]1Cl", "µM", ">", 100),
    ("COc1ccc2nc(NNC(=O)c3cnccn3)c3cccn3c2c1", "µM", "=", 2.85),
    ("O=[N+]([O-])O", "µM", ">", 100),
    ("O=P(O)(O)C(NCC(O)CN1CCOCC1)P(=O)(O)O (centres undefined)", "µM", ">", 100),
    ("CN(C)C=Nc1ccc2[nH]c3ccccc3c2c1", "µM", "=", 29.1),
    ("[O-]c1ccccc1/C=N/c1nccs1.[O-]c1ccccc1/C=N/c1nccs1.[O]=[U+2]=[O]", "µM", ">", 100),
    ("O=C(Oc1cccc2cccnc12)c1cc2cc(CCl)ccc2oc1=O", "µM", "=", 88.4),
    ("c1ccc(-c2cc(-c3cccs3)c(-c3cccs3)s2)cc1", "µM", "=", 54.5),
    ("C=C(C)C(=O)Oc1ccc(N=Nc2ccc(C)cc2)ccc1=O", "µM", "=", 12.7),
    ("CC(C)CCNc1ncnc2[nH]ncc12", "µM", ">", 100),
]
